Cited source for all entries: the SangsterLogP compilation

- Condition Details: pH 7.0
Threshold-based label: logD under 1 gives fulfilled, logD not under 1 gives not fulfilled.

Answered cases to consult:
CNc1ncnc2c1ncn2[C@H]1C[C@H](O)[C@@H](CO)O1 = fulfilled
CCCCN(CC)c1c([N+](=O)[O-])cc(C(F)(F)F)cc1[N+](=O)[O-] = not fulfilled
COC(=O)c1ccc(NC(C)=O)cc1 = not fulfilled
COc1c2c(cc3c1-c1ccc(OC)c(=O)cc1C(NC(C)=O)CC3)OCO2 (stereo not drawn) = not fulfilled
CC1(C)COC(Cn2cncn2)(c2ccc(-n3ccnc3)cc2Cl)OC1 = not fulfilled

Read the next record carefully.
### Prompt Please state whether logD is below 1 for CC1(CO)COC(Cn2cncn2)(c2ccc(Cl)cc2Cl)OC1 (stereo not drawn)
### Response not fulfilled
